System: biotinyl-Met-oxazolone
Experiment: self-aminoacylation, catalytic enhancement (BMO) (fold over background); higher = more active; k-Seq, kA / k0A0; sequences stand for … in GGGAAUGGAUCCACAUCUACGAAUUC…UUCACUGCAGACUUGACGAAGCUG
Variants at the floor of the assay were thinned out.
For each record, write down the corresponding self-aminoacylation.
One number for each entry.

CUAUUUCAAACAAUCCGUCUG [Fam1A.1 aminoacylation ribozyme variant] ... 0.818
CCUCACUUCCAGCAAUCGGUC [Fam1B.1 aminoacylation ribozyme variant] ... 0.651
AAGCUUGCUAAUCGUCGCAAG [Fam3.1 aminoacylation ribozyme variant] ... 1.55

Please state self-aminoacylation for every sequence in the list that follows.
1. CCACACUUGAAGCAAUCGAUC [Fam1B.1 aminoacylation ribozyme variant]
2. CCAAACUUCAAUCAAUCGGUC [Fam1B.1 aminoacylation ribozyme variant]

Result ::
[0.436, 1.43]

Query :: For biotinyl-Met-oxazolone, provide self-aminoacylation of CUACUUCAAACAUUCGGUGUG [Fam1A.1 aminoacylation ribozyme variant] please.
Result :: 1.82

The origin of these recorded values is the supplement of paper PMC9233669.
